Molecular target: T1, TRCW5 antigen (CD3δε-Fc-Avi) (biotinylated (site not stated))
T1 construct: also called recombinant CD3
T1 sequence (chain, as listed by the source mutant limits assumed): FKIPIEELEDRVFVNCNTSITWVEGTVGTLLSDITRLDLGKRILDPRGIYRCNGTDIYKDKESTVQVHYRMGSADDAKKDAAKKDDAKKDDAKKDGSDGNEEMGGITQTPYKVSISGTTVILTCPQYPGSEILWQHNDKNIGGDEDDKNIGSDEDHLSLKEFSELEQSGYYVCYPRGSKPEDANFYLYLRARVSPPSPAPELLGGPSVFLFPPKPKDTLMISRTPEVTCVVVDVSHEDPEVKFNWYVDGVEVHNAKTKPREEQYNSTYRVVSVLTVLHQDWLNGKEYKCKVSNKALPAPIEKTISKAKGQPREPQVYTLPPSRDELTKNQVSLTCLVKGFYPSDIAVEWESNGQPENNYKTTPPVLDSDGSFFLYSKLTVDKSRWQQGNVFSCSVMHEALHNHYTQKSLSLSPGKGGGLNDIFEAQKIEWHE
Assay: ELISA after heat
reported-property: % Retained 55° C. (%)

INSERT INTO results (binder, reported_property, meas_value) VALUES
  ('CD3B2049 (scFv) scFv: QVQLVQSGAEVKKPGSSVKVSCKASGYTFTRSTMHWVKQAPGQGLEWMGYINPSSAYTNYNQKFQGRVTLTADKSTSTAYMELSSLRSEDTAVYYCASPQVHYDYNGFPYWGQGTLVTVSSGGSEGKSSGSGSESKSTGGSEIVLTQSPATLSASPGERVTLSCSASSSVSYMNWYQQKPGTSPRRWIYDSSKLASGVPARFSGSGSGRDYTLTISSLEPEDFAVYYCQQWSRNPPTFGGGTKVEIK', '% Retained 55° C.', 108),
  ('CD3B2027 (scFv) scFv: QVQLVQSGAEVKKPGSSVKVSCKASGYTFTRSTMHWVKQAPGQGLEWIGYINPSSAYTNYNQKFQGRVTLTADKSTSTAYMELSSLRSEDTAVYYCASPQVHYDYNGFPYWGQGTLVTVSSGGSEGKSSGSGSESKSTGGSEIVLTQSPATLSASPGERVTLSCSASSSVSYMNWYQQKPGTSPRRLIYDSSKLASGVPARFSGSGSGRDYTLTISSLEPEDFAVYYCQQWSRNPPTFGGGTKVEIK', '% Retained 55° C.', 104),
  ('CD3B2079 (scFv) scFv: QVQLVQSGAEVKKPGSSVKVSCKASGYTFTRSTMHWVRQAPGQGLEWIGYINPSSAYTNYAQKFQGRVTLTADKSTSTAYMELSSLRSEDTAVYYCASPQVHYDYNGFPYWGQGTLVTVSSGGSEGKSSGSGSESKSTGGSEIVLTQSPATLSASPGERVTLSCSASSSVSYMNWYQQKPGTAPRRLIYDSSKLASGVPARFSGSGSGRDYTLTISSLEPEDFAVYYCQQWSRNPPTFGGGTKVEIK', '% Retained 55° C.', 111),
  ('CD3B2055 (scFv) scFv: QVQLVQSGAEVKKPGSSVKVSCKASGYTFTRSTMHWVRQAPGQGLEWIGYINPSSAYTNYNQKFQGRVTLTADKSTSTAYMELSSLRSEDTAVYYCASPQVHYDYNGFPYWGQGTLVTVSSGGSEGKSSGSGSESKSTGGSEIVLTQSPATLSASPGERVTLSCSASSSVSYMNWYQQKPGTSPRRWIYDSSKLASGVPARFSGSGSGRDYTLTISSLEPEDFAVYYCQQWSRNPPTFGGGTKVEIK', '% Retained 55° C.', 102),
  ('CD3B2068 (scFv) scFv: QVQLVQSGAEVKKPGSSVKVSCKASGYTFTRSTMHWVRQAPGQGLEWMGYINPSSAYTNYNQKFQGRVTLTADKSTSTAYMELSSLRSEDTAVYYCASPQVHYDYNGFPYWGQGTLVTVSSGGSEGKSSGSGSESKSTGGSEIVLTQSPATLSASPGERVTLSCSASSSVSYMNWYQQKPGQAPRRLIYDSSKLASGVPARFSGSGSGRDYTLTISSLEPEDFAVYYCQQWSRNPPTFGGGTKVEIK', '% Retained 55° C.', 103);

Ref: patent US20250145711A1
